Biological target: NHERF4_2, Q86UT5
Sequence (Q86UT5 220-308): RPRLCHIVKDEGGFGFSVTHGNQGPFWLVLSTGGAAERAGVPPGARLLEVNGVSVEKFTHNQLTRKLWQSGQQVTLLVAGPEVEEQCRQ
Experiment: holdup assay
Design: key: below the threshold = too weak to quantify, mostly under pKd 3.1 to 4
Details: plain residues with an end cap or a label only (N-terminal biotin on a linker: ado-ado)
Catalogue of pKd values
endpoint: pKd

> print(dat)
                        binder  observed.value
1   KAEEKPPSKV [SCN4B, Q8IWT1]            3.49
2  TKEIPNCTSV [SORCS3, Q9UPU3]            3.49

Taken from paper PMC9482650.
